Assay: Pharmacokinetics: AZD2811 whole blood concentrations and urine excretion
Type: in vivo, human
Conditions: human, whole blood, intravenous, 200 mg, whole blood, compartmental PK analysis; Cohort 6: 200 mg, Days 1 and 4, 28-day cycles, no G-CSF, N = 8; read-out: Geometric mean AUC(0–504h) (CV%)
READOUT TYPE: AUC(0-t) (µg·h/mL)
Write the value in µg·h/mL as a bare number.

Task: Supply recorded AUC(0-t) for `CCN(CCO)CCCOc1ccc2c(Nc3cc(CC(=O)Nc4cccc(F)c4)n[nH]3)ncnc2c1` here.
Output: 6220

* * *

Experiment: Pharmacokinetics: AZD2811 whole blood concentrations and urine excretion
Assay type: in vivo, human
Settings: human, whole blood, intravenous, 200 mg, whole blood; Cohort 6: 200 mg, Days 1 and 4, 28-day cycles, no G-CSF, N = 9; read-out: Median tmax (range)
READOUT TYPE: Tmax (h)
Write the value in h as a bare number.

Task: Supply recorded Tmax for `CCN(CCO)CCCOc1ccc2c(Nc3cc(CC(=O)Nc4cccc(F)c4)n[nH]3)ncnc2c1` here.
Output: 74

* * *

Assay: Pharmacokinetics: AZD2811 whole blood concentrations and urine excretion
Type: in vivo, human
Conditions: human, whole blood, intravenous, 100 mg, whole blood, compartmental PK analysis; Cohort 5: 100 mg, Days 1 and 4, 28-day cycles, no G-CSF, N = 3; read-out: Geometric mean AUC(0–504h) (CV%)
READOUT TYPE: AUC(0-t) (µg·h/mL)
Write the value in µg·h/mL as a bare number.

Task: Supply recorded AUC(0-t) for `CCN(CCO)CCCOc1ccc2c(Nc3cc(CC(=O)Nc4cccc(F)c4)n[nH]3)ncnc2c1` here.
Output: 3670

* * *

Assay: Pharmacokinetics: AZD2811 whole blood concentrations and urine excretion
Assay type: in vivo, human
Details: human, whole blood, intravenous, 400 mg, whole blood, compartmental PK analysis; Cohort 9: 400 mg, Day 1, 21-day cycles, optional G-CSF, N = 7; read-out: Geometric mean AUC(0–504h) (CV%)
READOUT TYPE: AUC(0-t) (µg·h/mL)
Write the value in µg·h/mL as a bare number.

Task: Supply recorded AUC(0-t) for `CCN(CCO)CCCOc1ccc2c(Nc3cc(CC(=O)Nc4cccc(F)c4)n[nH]3)ncnc2c1` here.
Output: 5440

* * *

Assay: Pharmacokinetics: AZD2811 whole blood concentrations and urine excretion
Assay type: in vivo, human
Conditions: human, whole blood, intravenous, 38 mg, whole blood; Cohort 3: 38 mg, Days 1 and 4, 28-day cycles, no G-CSF, N = 3; read-out: Median tmax (range)
READOUT TYPE: Tmax (h)
Write the value in h as a bare number.

Task: Supply recorded Tmax for `CCN(CCO)CCCOc1ccc2c(Nc3cc(CC(=O)Nc4cccc(F)c4)n[nH]3)ncnc2c1` here.
Output: 75

* * *

Assay: Pharmacokinetics: AZD2811 whole blood concentrations and urine excretion
Assay type: in vivo, human
Conditions: human, whole blood, intravenous, 600 mg, whole blood; Cohort 11: 600 mg, Day 1, 21-day cycles, mandatory G-CSF, N = 3; read-out: Geometric mean Cmax (CV%)
READOUT TYPE: Cmax
Please report the result as a number followed by the unit.

Task: Supply recorded Cmax for CCN(CCO)CCCOc1ccc2c(Nc3cc(CC(=O)Nc4cccc(F)c4)n[nH]3)ncnc2c1 [AZD2811] here.
Output: 138 µg/mL
